biological target: T1, Human PD-1 (ACROBiosystems, Inc., Catalog No. PD1-H5221) (human, UniProt Q15116 25-167); test: SPR (Biacore), scFv captured on anti-FLAG, PD-1 as analyte
T1 construct: Bought recombinant protein; also called huPD1-His; PD-1-his; not shown: His tag of the bought protein (huPD1-His)
T1 sequence (Q15116 25-167 limits assumed): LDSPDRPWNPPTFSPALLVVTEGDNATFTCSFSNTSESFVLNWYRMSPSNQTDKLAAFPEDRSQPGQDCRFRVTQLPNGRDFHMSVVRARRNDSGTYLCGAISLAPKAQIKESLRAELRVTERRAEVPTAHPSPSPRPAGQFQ
readout_type: koff (s⁻¹)
# unit: s⁻¹ | format: bare number

koff in this record for h1E9-2 (VH3-21-Vκ3-11) scFv (scFv, Whole scFv chain with FlagHis tag) scFv: MEVQLVESGGGLVKPGGSLRLSCAASGFTFSTFGMSWVRQAPGKGLEWVSTISGGGSDTYYPDSVQGRFTISRDNAKNSLYLQMNSLRAEDTAVYYCARQGYDVYSWFAYWGQGTLVTVSSGGGGSGGGGSGGGGSEIVLTQSPATLSLSPGERATLSCRASESVDNSGISFMSWYQQKPGQAPRLLIYTASNQGSGIPARFSGSGSGTDFTLTISSLEPEDFAVYYCQQSKEVPWTFGQGTKVEIKGSGDYKDDDDKGSGHHHHHH : 0.00182

Values were extracted from patent US20210107981A1.
